method-notes: 28-day twice-daily oral gavage pharmacokinetics in CD1 mice
Assay type: in vivo
experimental-context: male, CD1, mouse, plasma, po, 50 mg/kg, day 28; 50 mg/kg/dose BID oral gavage; M; after second daily dose; read-out: AUC0–12
measured-parameter: AUC(0-t) (ng·h/mL)
Return type: number; implicit unit ng·h/mL.

Problem: Which value of AUC(0-t) has been reported for O=C(Nc1cc(F)c(F)c(F)c1)c1ccc(F)c(S(=O)(=O)N2CCC(O)CC2)c1 in the records?
Solution: 87300

----------
method-notes: 28-day twice-daily oral gavage pharmacokinetics in CD1 mice
Assay type: in vivo
experimental-context: male, CD1, mouse, plasma, po, 50 mg/kg, day 1; 50 mg/kg/dose BID oral gavage; M; after second daily dose; read-out: AUC0–12
measured-parameter: AUC(0-t) (ng·h/mL)
Return type: number; implicit unit ng·h/mL.

Problem: Which value of AUC(0-t) has been reported for O=C(Nc1cc(F)c(F)c(F)c1)c1ccc(F)c(S(=O)(=O)N2CCC(O)CC2)c1 in the records?
Solution: 70400

----------
method-notes: 28-day twice-daily oral gavage pharmacokinetics in CD1 mice
Assay type: in vivo
experimental-context: male, CD1, mouse, plasma, po, 500 mg/kg, day 28; 500 mg/kg/dose BID oral gavage; M; plasma; read-out: Cmax
measured-parameter: Cmax (ng/mL)
Return type: number; implicit unit ng/mL.

Problem: Which value of Cmax has been reported for O=C(Nc1cc(F)c(F)c(F)c1)c1ccc(F)c(S(=O)(=O)N2CCC(O)CC2)c1 [NVR 3-778] in the records?
Solution: 43800

----------
method-notes: 28-day twice-daily oral gavage pharmacokinetics in CD1 mice
Assay type: in vivo
experimental-context: female, CD1, mouse, plasma, po, 50 mg/kg, day 28; 50 mg/kg/dose BID oral gavage; F; after second daily dose; read-out: AUC0–12
measured-parameter: AUC(0-t) (ng·h/mL)
Return type: number; implicit unit ng·h/mL.

Problem: Which value of AUC(0-t) has been reported for O=C(Nc1cc(F)c(F)c(F)c1)c1ccc(F)c(S(=O)(=O)N2CCC(O)CC2)c1 in the records?
Solution: 78800

----------
method-notes: Oral bioavailability and pharmacokinetics in beagle dogs
Type: in vivo
experimental-context: dog, plasma; single oral gavage 1.5 mg/kg, two male beagle dogs; read-out: AUC0–inf (mean)
measured-parameter: AUC(0-inf) (ng·h/mL)
Return type: number; implicit unit ng·h/mL.

Problem: Which value of AUC(0-inf) has been reported for O=C(Nc1cc(F)c(F)c(F)c1)c1ccc(F)c(S(=O)(=O)N2CCC(O)CC2)c1 in the records?
Solution: 3500

----------
Test system: HBV core protein variant T109M
method-notes: microbe, parasite or virus in culture
experimental-context: Hepatitis B virus, HepG2, read-out: EC50, core variant T109M
measured-parameter: pEC50
Scale for pEC50: -log10 of concentration given in mol/L; no unit attached.

Problem: // map O=C(Nc1cc(F)c(F)c(F)c1)c1ccc(F)c(S(=O)(=O)N2CCC(O)CC2)c1 [NVR 3-778] to recorded pEC50 (system: HBV core protein variant T109M)
Solution: 6.55

----------
method-notes: Oral bioavailability and pharmacokinetics in beagle dogs
Type: in vivo
experimental-context: dog, plasma, iv; single i.v. 0.5 mg/kg, two male beagle dogs; read-out: AUC0–inf (mean)
measured-parameter: AUC(0-inf)
Answer with the value and then the unit.

Problem: Which value of AUC(0-inf) has been reported for O=C(Nc1cc(F)c(F)c(F)c1)c1ccc(F)c(S(=O)(=O)N2CCC(O)CC2)c1 [NVR 3-778] in the records?
Solution: 1380 ng·h/mL

----------
Tested on: HBV
method-notes: De novo infection study using PHH
Type: cell-based
experimental-context: Hepatitis B virus, 264 h; PHH from three donors, compound added with inoculum, 11 days; read-out: EC50, HBV DNA
measured-parameter: pEC50
Scale for pEC50: -log10 of concentration given in mol/L; no unit attached.

>  <compound>
O=C(Nc1cc(F)c(F)c(F)c1)c1ccc(F)c(S(=O)(=O)N2CCC(O)CC2)c1 [NVR 3-778]

>  <pEC50>
6.09

$$$$

In the following, a different compound is considered.
Problem: Which value of pEC50 has been reported for Nc1ccn([C@@H]2CS[C@H](CO)O2)c(=O)n1 [LMV, lamivudine, reference compound] in the records?
Solution: 7.80

----------
method-notes: 28-day twice-daily oral gavage pharmacokinetics in CD1 mice
Type: in vivo
experimental-context: female, CD1, mouse, plasma, po, 150 mg/kg, day 28; 150 mg/kg/dose BID oral gavage; F; relative to second daily dose
Experimental: Fed male and female CD1 mice (36/sex/group) were dosed twice a day (BID) by oral gavage with 50, 150, and 500 mg/kg of body weight/dose of NVR 3-778 for 28 days. At different time points after dosing, plasma was analyzed for NVR 3-778 concentration by liquid chromatography-tandem mass spectrometry (LC-MS/MS). […]
measured-parameter: Tmax (h)
Return type: number; implicit unit h.

Problem: Which value of Tmax has been reported for O=C(Nc1cc(F)c(F)c(F)c1)c1ccc(F)c(S(=O)(=O)N2CCC(O)CC2)c1 in the records?
Solution: 1

----------
method-notes: 28-day twice-daily oral gavage pharmacokinetics in CD1 mice
Assay type: in vivo
experimental-context: male, CD1, mouse, plasma, po, 150 mg/kg, day 28; 150 mg/kg/dose BID oral gavage; M; plasma; read-out: Cmax
measured-parameter: Cmax (ng/mL)
Return type: number; implicit unit ng/mL.

Problem: Which value of Cmax has been reported for O=C(Nc1cc(F)c(F)c(F)c1)c1ccc(F)c(S(=O)(=O)N2CCC(O)CC2)c1 in the records?
Solution: 24200

----------
method-notes: 28-day twice-daily oral gavage pharmacokinetics in CD1 mice
Format: in vivo
experimental-context: female, CD1, mouse, plasma, po, 150 mg/kg, day 28; 150 mg/kg/dose BID oral gavage; F
measured-parameter: half-life (h)
Return type: number; implicit unit h.

Problem: Which value of half-life has been reported for O=C(Nc1cc(F)c(F)c(F)c1)c1ccc(F)c(S(=O)(=O)N2CCC(O)CC2)c1 [NVR 3-778] in the records?
Solution: 2.48

----------
method-notes: 28-day twice-daily oral gavage pharmacokinetics in CD1 mice
Assay type: in vivo
experimental-context: female, CD1, mouse, plasma, po, 150 mg/kg, day 1; 150 mg/kg/dose BID oral gavage; F; plasma; read-out: Cmax
measured-parameter: Cmax

Problem: Which value of Cmax has been reported for O=C(Nc1cc(F)c(F)c(F)c1)c1ccc(F)c(S(=O)(=O)N2CCC(O)CC2)c1 in the records?
Solution: 22 µg/mL

----------
method-notes: 28-day twice-daily oral gavage pharmacokinetics in CD1 mice
Type: in vivo
experimental-context: male, CD1, mouse, plasma, po, 150 mg/kg, day 1; 150 mg/kg/dose BID oral gavage; M
measured-parameter: half-life (min)
Return type: number; implicit unit min.

Problem: Which value of half-life has been reported for O=C(Nc1cc(F)c(F)c(F)c1)c1ccc(F)c(S(=O)(=O)N2CCC(O)CC2)c1 in the records?
Solution: 300

----------
method-notes: 28-day twice-daily oral gavage pharmacokinetics in CD1 mice
Assay type: in vivo
experimental-context: both sexes, CD1, mouse, plasma, po, 500 mg/kg, 28-day study, dosed orally at 500 mg/kg BID; 100 µM = 43.2 µg/ml; read-out: Mean Cmax (serum/plasma level reached in mice)
measured-parameter: Cmax

Problem: Which value of Cmax has been reported for O=C(Nc1cc(F)c(F)c(F)c1)c1ccc(F)c(S(=O)(=O)N2CCC(O)CC2)c1 [NVR 3-778] in the records?
Solution: > 100 µM

----------
method-notes: 28-day twice-daily oral gavage pharmacokinetics in CD1 mice
Type: in vivo
experimental-context: male, CD1, mouse, plasma, po, 500 mg/kg, day 1; 500 mg/kg/dose BID oral gavage; M; after second daily dose; read-out: AUC0–12
Description: Fed male and female CD1 mice (36/sex/group) were dosed twice a day (BID) by oral gavage with 50, 150, and 500 mg/kg of body weight/dose of NVR 3-778 for 28 days. At different time points after dosing, plasma was analyzed for NVR 3-778 concentration by liquid chromatography-tandem mass spectrometry (LC-MS/MS). […]
measured-parameter: AUC(0-t)
Answer with the value and then the unit.

Problem: Which value of AUC(0-t) has been reported for O=C(Nc1cc(F)c(F)c(F)c1)c1ccc(F)c(S(=O)(=O)N2CCC(O)CC2)c1 in the records?
Solution: 406 µg·h/mL

----------
method-notes: 28-day twice-daily oral gavage pharmacokinetics in CD1 mice
Assay type: in vivo
experimental-context: female, CD1, mouse, plasma, po, 50 mg/kg, day 28; 50 mg/kg/dose BID oral gavage; F; plasma; read-out: Cmax
measured-parameter: Cmax

Problem: Which value of Cmax has been reported for O=C(Nc1cc(F)c(F)c(F)c1)c1ccc(F)c(S(=O)(=O)N2CCC(O)CC2)c1 [NVR 3-778] in the records?
Solution: 11500 ng/mL
